Assay: Measured activity expressed as ID50 (analogue)/ID50 (paclitaxel), where ID50 is the concentration of compound leading to 50% inhibition of the rate microtubule disassembly
Type: functional
quantity name: Activity

Reference set (8 entries):
>>> result("CC(=O)O[C@@H]1C2=C(C)[C@@H](OC(=O)[C@H](O)[C@@H](NC(=O)OC(C)(C)C)[C@H]3COC(C)(C)O3)C[C@@](O)([C@@H](OC(=O)c3ccccc3)[C@H]3[C@@](C)([C@@H](O)CC4OC[C@]43OC(C)=O)[C@H]1O)C2(C)C (some centres undefined)")
7.91
>>> result("CC(=O)O[C@@H]1C2=C(C)[C@@H](OC(=O)[C@H](O)[C@@H](NC(=O)NC(C)(C)C)c3ccccc3)C[C@@](O)([C@@H](OC(=O)c3ccccc3)[C@H]3[C@@](C)([C@@H](O)CC4OC[C@]43OC(C)=O)[C@H]1O)C2(C)C (some centres undefined)")
1.06
>>> result("CC(=O)O[C@H]1C(=O)[C@]2(C)[C@@H](O)CC3OC[C@@]3(OC(C)=O)[C@H]2[C@H](OC(=O)c2ccccc2)[C@]2(O)C[C@H](OC(=O)[C@H](O)[C@H](NC(=O)c3ccc(Cl)cc3)c3ccccc3)C(C)=C1C2(C)C (some centres undefined)")
2.4
>>> result("CCCC[C@H](NC(=O)OC(C)(C)C)[C@@H](O)C(=O)O[C@H]1C[C@@]2(O)[C@@H](OC(=O)c3ccccc3)[C@H]3[C@@](C)([C@@H](O)CC4OC[C@]43OC(C)=O)[C@@H](O)[C@H](OC(C)=O)C(=C1C)C2(C)C (some centres undefined)")
9.74
>>> result("CC(=O)O[C@@H]1C2=C(C)[C@@H](OC(=O)[C@H](O)[C@@H](NC(=O)OC(C)C)c3ccccc3)C[C@@](O)([C@@H](OC(=O)c3ccccc3)[C@H]3[C@@](C)([C@@H](O)CC4OC[C@]43OC(C)=O)[C@H]1O)C2(C)C (some centres undefined)")
0.75
>>> result("CC(=O)O[C@@]12COC1C[C@H](O)[C@@]1(C)C(=O)[C@H](O)C3=C(C)[C@@H](OC(=O)[C@H](O)[C@H](NC(=O)OC(C)(C)C)c4ccccc4)C[C@@](O)([C@@H](OC(=O)c4ccccc4)[C@@H]12)C3(C)C (some centres undefined)")
0.6
>>> result("CC(=O)O[C@@]12COC1C[C@H](O)[C@@]1(C)C(=O)[C@H](O)C3=C(C)[C@@H](OC(=O)[C@@H](O)Cc4ccccc4)C[C@@](O)([C@@H](OC(=O)c4ccccc4)[C@@H]12)C3(C)C (some centres undefined)")
3.5
>>> result("CC(=O)O[C@@]12COC1C[C@H](O)[C@@]1(C)C(=O)[C@H](O)C3=C(C)[C@@H](OC(=O)[C@H](O)Cc4ccccc4)C[C@@](O)([C@@H](OC(=O)c4ccccc4)[C@@H]12)C3(C)C (some centres undefined)")
4.5

Read the next record carefully.
Query: State the recorded Activity for this entry: CC(=O)O[C@@]12COC1C[C@H](O)[C@@]1(C)C(=O)[C@H](O)C3=C(C)[C@@H](OC(=O)[C@@H](NC(=O)OC(C)(C)C)[C@@H](O)c4ccccc4)C[C@@](O)([C@@H](OC(=O)c4ccccc4)[C@@H]12)C3(C)C (some centres undefined)
Reply: 160

====

Reported Activity values for a set of compounds
Test: Measured activity expressed as ID50 (analogue)/ID50 (paclitaxel), where ID50 is the concentration of compound leading to 50% inhibition of the rate microtubule disassembly
Assay type: functional
Please give only the number in your answer, with no unit.

>>> quantitative_result("C/C=C(/C)C(=O)N[C@H](c1ccccc1)[C@@H](O)C(=O)O[C@H]1C[C@@]2(O)[C@@H](OC(=O)c3ccccc3)[C@H]3[C@](C)(C(=O)[C@H](OC(C)=O)C(=C1C)C2(C)C)[C@@H](O)CC1OC[C@]13OC(C)=O (some centres not stated)")
1.5

Read the next record carefully.
Query: State the recorded Activity for this entry: CC(=O)O[C@@]12COC1C[C@H](O)[C@@]1(C)C(=O)[C@H](O)C3=C(C)[C@@H](OC(=O)[C@H](O)[C@H](NC(=O)c4cccs4)C(C)(C)C)C[C@@](O)([C@@H](OC(=O)c4ccccc4)[C@@H]12)C3(C)C (some centres not stated)
Reply: 0.42

====

Test: Measured activity expressed as ID50 (analogue)/ID50 (paclitaxel), where ID50 is the concentration of compound leading to 50% inhibition of the rate microtubule disassembly
Type: functional
Short version: Activity at least 10 is T, less is F.

Check out these entries, answers already filled in.
>>> class("CC(=O)O[C@H]1C(=O)[C@]2(C)[C@@H](O)CC3OC[C@@]3(OC(C)=O)[C@H]2[C@H](OC(=O)c2ccccc2)[C@]2(O)C[C@H](OC(=O)[C@H](O)[C@H](NC(=O)c3ccccc3)c3ccco3)C(C)=C1C2(C)C (stereo not given in full)")
"F"
>>> class("COC(=O)[C@@H](C(=O)O[C@H]1C[C@@]2(O)[C@@H](OC(=O)c3ccccc3)[C@H]3[C@](C)(C(=O)[C@H](OC(C)=O)C(=C1C)C2(C)C)[C@@H](O)CC1OC[C@]13OC(C)=O)[C@H](NC(=O)c1ccccc1)c1ccccc1 (stereo not given in full)")
"T"
>>> class("CC(=O)O[C@@]12COC1C[C@H](O)[C@@]1(C)C(=O)[C@H](O)C3=C(C)[C@@H](OC(=O)C(O)C(O)c4ccccc4)C[C@@](O)([C@@H](OC(=O)c4ccccc4)[C@@H]12)C3(C)C (stereo not given in full)")
"F"

Query: Please indicate if the recorded Activity for CC(=O)O[C@H]1C(=O)[C@]2(C)[C@@H](O)CC3OC[C@@]3(OC(C)=O)[C@H]2[C@H](OC(=O)c2ccccc2)[C@]2(O)C[C@H](OC(=O)[C@@H](NC(=O)c3ccccc3)[C@@H](O)c3ccccc3)C(C)=C1C2(C)C (stereo not given in full) meets or exceeds 10.
Reply: T

====

Reported Activity values for a set of compounds
Experiment: Measured activity expressed as ID50 (analogue)/ID50 (paclitaxel), where ID50 is the concentration of compound leading to 50% inhibition of the rate microtubule disassembly
Type: functional

>>> result("CC(=O)O[C@@]12COC1C[C@H](O)[C@@]1(C)C(=O)[C@H](O)C3=C(C)[C@@H](OC(=O)[C@H](O)[C@@H](C=C(C)C)NC(=O)OC(C)(C)C)C[C@@](O)([C@@H](OC(=O)c4ccccc4)[C@@H]12)C3(C)C (some centres not stated)")
0.64

Read the next record carefully.
Query: State the recorded Activity for this entry: CC(=O)O[C@@]12COC1C[C@H](O)[C@@]1(C)C(=O)[C@H](O)C3=C(C)[C@@H](OC(=O)[C@H](NC(=O)OC(C)(C)C)[C@H](O)c4ccccc4)C[C@@](O)([C@@H](OC(=O)c4ccccc4)[C@@H]12)C3(C)C (some centres not stated)
Reply: 10

====

Experiment: Measured activity expressed as ID50 (analogue)/ID50 (paclitaxel), where ID50 is the concentration of compound leading to 50% inhibition of the rate microtubule disassembly
Assay type: functional
quantity name: Activity
Please give only the number in your answer, with no unit.

>>> quantitative_result("CC(=O)O[C@H]1C(=O)[C@]2(C)[C@@H](O)CC3OC[C@@]3(OC(C)=O)[C@H]2[C@H](OC(=O)c2ccccc2)[C@]2(O)C[C@H](OC(=O)[C@H](O)[C@H](NC(=O)C(C)=O)c3ccccc3)C(C)=C1C2(C)C (some centres not stated)")
3.5
>>> quantitative_result("CC(=O)O[C@H]1C(=O)[C@]2(C)[C@@H](O)CC3OC[C@@]3(OC(C)=O)[C@H]2[C@H](OC(=O)C2CCCCC2)[C@]2(O)C[C@H](OC(=O)[C@H](O)[C@@H](NC(=O)OC(C)(C)C)c3ccccc3)C(C)=C1C2(C)C (some centres not stated)")
0.67
>>> quantitative_result("CC(=O)O[C@@H]1C2=C(C)[C@@H](OC(=O)[C@H](O)[C@@H](NC(=O)c3ccccc3)c3ccccc3)C[C@@](O)([C@@H](OC(=O)c3ccccc3)[C@H]3[C@@](C)([C@@H](O)CC4OC[C@]43OC(C)=O)[C@H]1O)C2(C)C (some centres not stated)")
0.86

Query: State the recorded Activity for this entry: CC(=O)O[C@H]1C(=O)[C@]2(C)[C@@H](O)CC3OC[C@@]3(OC(C)=O)[C@H]2[C@H](OC(=O)c2ccccc2)[C@]2(O)C[C@H](OC(=O)[C@H](NC(=O)OC(C)(C)C)[C@H](O)c3ccccc3)C(C)=C1C2(C)C (some centres not stated)
Reply: 10

Query: State the recorded Activity for this entry: CO[C@H]1[C@H](OC(C)=O)C2=C(C)[C@@H](OC(=O)[C@H](O)[C@@H](NC(=O)OC(C)(C)C)c3ccccc3)C[C@@](O)([C@@H](OC(=O)c3ccccc3)[C@H]3[C@@]1(C)[C@@H](O)CC1OC[C@]13OC(C)=O)C2(C)C (some centres not stated)
Reply: 0.51

Query: State the recorded Activity for this entry: CC(=O)O[C@@H]1C2=C(C)[C@@H](OC(=O)[C@H](O)[C@H](COc3ccccc3)NC(=O)c3ccccc3)C[C@@](O)([C@@H](OC(=O)c3ccccc3)[C@H]3[C@@](C)([C@@H](O)CC4OC[C@]43OC(C)=O)[C@H]1O)C2(C)C (some centres not stated)
Reply: 5.81

Query: State the recorded Activity for this entry: CC(=O)O[C@H]1C(=O)[C@]2(C)[C@@H](O)CC3OC[C@@]3(OC(C)=O)[C@H]2[C@H](OC(=O)c2ccccc2)[C@]2(O)C[C@H](OC(=O)[C@H](O)[C@H](NC(=O)c3ccccc3)c3ccc(O)cc3)C(C)=C1C2(C)C (some centres not stated)
Reply: 0.8

Query: State the recorded Activity for this entry: CC[C@H](NC(=O)OC(C)(C)C)[C@@H](O)C(=O)O[C@H]1C[C@@]2(O)[C@@H](OC(=O)c3ccccc3)[C@H]3[C@@](C)([C@@H](O)CC4OC[C@]43OC(C)=O)[C@@H](O)[C@H](OC(C)=O)C(=C1C)C2(C)C (some centres not stated)
Reply: 0.61

Query: State the recorded Activity for this entry: COc1ccc(C(=O)N[C@H](c2ccccc2)[C@@H](O)C(=O)O[C@H]2C[C@@]3(O)[C@@H](OC(=O)c4ccccc4)[C@H]4[C@](C)(C(=O)[C@H](OC(C)=O)C(=C2C)C3(C)C)[C@@H](O)CC2OC[C@]24OC(C)=O)cc1 (some centres not stated)
Reply: 0.5

Query: State the recorded Activity for this entry: CC(=O)O[C@@]12COC1C[C@H](O)[C@@]1(C)C(=O)[C@H](O)C3=C(C)[C@@H](OC(=O)[C@H](O)[C@@H](NC(=O)OC(C)(C)C)c4ccccc4)[C@H](O)[C@@](O)([C@@H](OC(=O)c4ccccc4)[C@@H]12)C3(C)C (some centres not stated)
Reply: 0.8

Query: State the recorded Activity for this entry: CC(=O)O[C@@]12COC1C[C@H](O)[C@@]1(C)C(=O)[C@H](O)C3=C(C)[C@@H](OC(=O)[C@@H](NC(=O)c4ccccc4)[C@@H](O)c4ccccc4)C[C@@](O)([C@@H](OC(=O)c4ccccc4)[C@@H]12)C3(C)C (some centres not stated)
Reply: 170

Query: State the recorded Activity for this entry: CC(=O)O[C@@]12COC1C[C@H](O)[C@@]1(C)C(=O)[C@H](O)C3=C(C)[C@@H](OC(=O)[C@H](O)[C@@H](CC(C)(C)C)NC(=O)OC(C)(C)C)C[C@@](O)([C@@H](OC(=O)c4ccccc4)[C@@H]12)C3(C)C (some centres not stated)
Reply: 1.45

Query: State the recorded Activity for this entry: CC(=O)O[C@H]1C(=O)[C@]2(C)[C@@H](O)CC3OC[C@@]3(OC(C)=O)[C@H]2[C@H](OC(=O)c2ccccc2)[C@]2(O)C[C@H](OC(=O)[C@@H](NC(=O)OC(C)(C)C)[C@@H](O)c3ccccc3)C(C)=C1C2(C)C (some centres not stated)
Reply: 108

Query: State the recorded Activity for this entry: CC(=O)O[C@H]1C(=O)[C@]2(C)[C@@H](O)CC3OC[C@@]3(OC(C)=O)[C@H]2[C@H](OC(=O)c2ccccc2)[C@]2(O)C[C@H](OC(=O)[C@H](O)[C@@H](NC(=O)c3ccccc3)C3CCCCC3)C(C)=C1C2(C)C (some centres not stated)
Reply: 0.29
